molecular target: human MC5R (Homo sapiens, UniProt P33032); construct: purchased Perkin Elmer RBXMC5M400UA; assay: Human MC5R radioligand binding assay ([125I] NDP-MSH displacement, hMC5R membranes); conditions: hMC5R binding assay as in Example 102; compounds tested as trifluoroacetate or hydrochloride salts, or as free base
Sequence (P33032 whole entry): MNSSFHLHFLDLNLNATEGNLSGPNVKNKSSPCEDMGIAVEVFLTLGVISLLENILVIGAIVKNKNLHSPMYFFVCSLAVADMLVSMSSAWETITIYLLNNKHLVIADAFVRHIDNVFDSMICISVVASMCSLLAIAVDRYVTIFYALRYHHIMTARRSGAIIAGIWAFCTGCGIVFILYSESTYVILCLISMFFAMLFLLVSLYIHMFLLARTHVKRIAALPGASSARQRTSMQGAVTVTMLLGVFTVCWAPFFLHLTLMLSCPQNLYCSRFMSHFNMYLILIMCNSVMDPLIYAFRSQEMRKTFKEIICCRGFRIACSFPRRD
Attribute: IC50
observable: IC50

>>> print(df.to_string())
                                   molecule  endpoint_result
0  CC[C@@H](CN1CC[C@H](CNC(=O)c2ccc3cc(Cl)ccc3c2)N[C@@H](CCN2CCCCC2)C1=O)c1ccccc1 [Compound 583]           < 1 µM
1  CC[C@H](CN1CC[C@H](CNC(=O)c2ccc3cc(Cl)ccc3c2)N[C@H](CCN2CCCCC2)C1=O)c1ccccc1 [Compound 585]          < 10 µM
2  CC[C@@H](CN1CC[C@H](CNC(=O)c2ccc3cc(Cl)ccc3c2)N[C@H](CCN2CCCCC2)C1=O)c1ccccc1 [Compound 580]           < 1 µM

* * *

target: human MC5R (Homo sapiens); construct: purchased Perkin Elmer RBXMC5M400UA; assay: Human MC5R radioligand binding assay ([125I] NDP-MSH displacement, hMC5R membranes); details: hMC5R assay as in Example 102; compounds tested as trifluoroacetate or hydrochloride salts, or as free base
Attribute: IC50
observable: IC50

>>> print(df.to_string())
                                   compound  observable  endpoint_result
0  NCCC[C@@H]1N[C@H](CNC(=O)c2cc(-c3ccc(Cl)cc3)on2)CCN(CC(c2ccccc2)c2ccccc2)C1=O [Compound 240]        IC50         < 100 nM
1  CCC(CN1CC[C@@H](CNC(=O)c2ccc3ccccc3c2)N[C@@H](CCN)C1=O)c1ccccc1 (mixture of isomers) [Compound 37]        IC50         < 100 nM
2  NCCC[C@@H]1N[C@H](CNC(=O)c2ccc(-n3cccc3)cc2)CCN(CC(c2ccccc2)c2ccccc2)C1=O [Compound 238]        IC50         < 100 nM
3  O=C(NC[C@@H]1CCN(Cc2cc(Cl)cc(Cl)c2)C(=O)[C@H](CN2CCCC2)N1)c1ccc(Cl)c(Cl)c1 [Compound 371]        IC50        < 1000 nM
4  NCCCC[C@@H]1N[C@H](CNC(=O)c2ccc3ccccc3c2)CCN(CC(c2ccccc2)c2ccccc2)C1=O [Compound 126]        IC50        < 1000 nM
5  NCCC[C@@H]1N[C@H](CNC(=O)c2ccc3ccccc3c2)CCN(CC(c2ccccc2)c2ccccc2)C1=O [Compound 63]        IC50        < 1000 nM

* * *

biological target: human MC5R (Homo sapiens, UniProt P33032); construct: purchased Perkin Elmer RBXMC5M400UA; assay: Human MC5R radioligand binding assay ([125I] NDP-MSH displacement, hMC5R membranes); settings: hMC5R assay as in Example 102; compounds tested as trifluoroacetate or hydrochloride salts, or as free base
pIC50: −log10 of the molar value.
observable: pIC50

>>> print(df.to_string())
                               line_notation  observable  endpoint_result
 0  Cc1ccc(C(=O)NC[C@@H]2CCN(CC(c3ccccc3)c3ccccc3)C(=O)[C@H](CCN3CCCCC3)N2)cc1C       pIC50           > 7.00
 1  N=C(N)NCCC[C@@H]1N[C@H](CNC(=O)c2ccc3cc(F)ccc3c2)CCN(CC(c2ccccc2)c2ccccc2)C1=O       pIC50           > 7.00
 2  O=C(NC[C@@H]1CCN(CC(c2ccccc2)c2ccccc2)C(=O)[C@H](CCCNC2CCCCC2)N1)c1ccc2ccccc2c1       pIC50           > 7.00
 3  CCN(CC)CC[C@@H]1N[C@H](CNC(=O)c2ccc3cc(F)ccc3c2)CCN(CC(c2ccccc2)c2ccccc2)C1=O       pIC50           > 7.00
 4  N=C(N)NCCC[C@@H]1N[C@H](CNC(=O)c2cc(Cl)ccc2Cl)CCN(CC(c2ccccc2)c2ccccc2)C1=O       pIC50           > 6.00
 5  CCC(CC)CN1CC[C@@H](CNC(=O)c2ccc(Cl)c(Cl)c2)N[C@@H](CCN2CCCCC2)C1=O       pIC50           > 7.00
 6  O=C(/C=C/c1ccc(Cl)cc1)NC[C@@H]1CCN(CC(c2ccccc2)c2ccccc2)C(=O)[C@H](CCc2ccccc2)N1       pIC50           > 6.00
 7  CCC(CC)CN1CC[C@@H](CNC(=O)/C=C/c2ccc(Cl)cc2)N[C@@H](CN2CCCCC2)C1=O       pIC50           > 6.00
 8  NCCC[C@@H]1N[C@H](CNC(=O)c2ccc3cc(F)ccc3c2)CCN(CC(c2ccccc2)c2ccccc2)C1=O       pIC50           > 7.00
 9  Cc1ccc(/C=C/C(=O)NC[C@@H]2CCN(CC(c3ccccc3)c3ccccc3)C(=O)[C@H](CCCN)N2)s1       pIC50           > 6.00
10  NCC[C@@H]1N[C@H](CNC(=O)/C=C/c2ccc(Cl)cc2)CCN(CC(c2ccccc2)c2ccccc2)C1=O       pIC50           > 7.00
11  NCCC[C@@H]1N[C@H](CNC(=O)c2ccc(Cl)c(Cl)c2)CCN(CC(c2ccccc2)c2ccccc2)C1=O       pIC50           > 7.00
12  Cc1ccc(/C=C/C(=O)NC[C@@H]2CCN(CC(c3ccccc3)c3ccccc3)C(=O)[C@H](CCN)N2)cc1       pIC50           > 7.00
13  O=C(NCC[C@@H]1CCN(CC(c2ccccc2)c2ccccc2)C(=O)[C@H](CCN2CCCCC2)N1)c1ccc(Cl)c(Cl)c1       pIC50           > 6.00
14  CCC(CC)CN1CC[C@@H](CNC(=O)c2ccc(C)c(Cl)c2)N[C@@H](CCN)C1=O       pIC50           > 5.00
15  N=C(N)NCCC[C@@H]1N[C@H](CNC(=O)c2cc3ccccc3cn2)CCN(CC(c2ccccc2)c2ccccc2)C1=O       pIC50           > 6.00
16  O=C(NC[C@@H]1CCN(CC(c2ccccc2)c2ccccc2)C(=O)[C@H](CCN2CCCCC2)N1)c1ccc(Cl)c(Cl)c1       pIC50           > 8.00

* * *

target: human MC5R (Homo sapiens, UniProt P33032); construct: purchased Perkin Elmer RBXMC5M400UA; assay: Human MC5R radioligand binding assay ([125I] NDP-MSH displacement, hMC5R membranes); conditions: hMC5R assay as in Example 102; compounds tested as trifluoroacetate or hydrochloride salts, or as free base
Attribute: IC50
observable: IC50

>>> df
                               line_notation                              study_system  endpoint_result
 0  Cc1ccccc1/C=C/C(=O)NC[C@@H]1CCN(CC(c2ccccc2)c2ccccc2)C(=O)[C@H](CCCNC(=N)N)N1  human MC5R (Homo sapiens, UniProt P33032)         < 0.1 µM
 1  CN(C[C@@H]1CCN(CC(c2ccccc2)c2ccccc2)C(=O)[C@H](CCCN)N1)C(=O)/C=C/c1ccc(F)cc1  human MC5R (Homo sapiens, UniProt P33032)          < 10 µM
 2  N=C(N)NCCC[C@@H]1N[C@H](CNC(=O)CCc2ccccc2)CCN(CC(c2ccccc2)c2ccccc2)C1=O  human MC5R (Homo sapiens, UniProt P33032)           < 1 µM
 3  N=C(N)NCCC[C@@H]1N[C@H](CNC(=O)/C=C/c2ccccc2Cl)CCN(CC(c2ccccc2)c2ccccc2)C1=O  human MC5R (Homo sapiens, UniProt P33032)           < 1 µM
 4  N=C(N)NCCC[C@@H]1N[C@H](CNC(=O)c2ccc(-c3ccccc3)o2)CCN(CC(c2ccccc2)c2ccccc2)C1=O  human MC5R (Homo sapiens, UniProt P33032)           < 1 µM
 5  COc1c(C(=O)NC[C@@H]2CCN(CC(c3ccccc3)c3ccccc3)C(=O)[C@H](CCCNC(=N)N)N2)ccc2ccccc12  human MC5R (Homo sapiens, UniProt P33032)         < 0.1 µM
 6  N=C(N)NCCC[C@@H]1N[C@H](CNC(=O)c2ccc3[nH]nnc3c2)CCN(CC(c2ccccc2)c2ccccc2)C1=O  human MC5R (Homo sapiens, UniProt P33032)          < 10 µM
 7  N=C(N)NCCC[C@@H]1N[C@H](CNC(=O)c2ccccc2)CCN(CC(c2ccccc2)c2ccccc2)C1=O  human MC5R (Homo sapiens, UniProt P33032)           < 1 µM
 8  CCC(CC)CN1CC[C@@H](CNC(=O)c2ccc(F)c(Cl)c2)N[C@@H](CCN)C1=O  human MC5R (Homo sapiens, UniProt P33032)          < 10 µM
 9  NCCC[C@@H]1N[C@H](CNC(=O)/C=C/c2ccc(F)cc2)CCN(CC(c2ccccc2)c2ccccc2)C1=O  human MC5R (Homo sapiens, UniProt P33032)         < 0.1 µM
10  NC[C@@H]1N[C@H](CNC(=O)/C=C/c2ccc(Cl)cc2)CCN(CC(c2ccccc2)c2ccccc2)C1=O  human MC5R (Homo sapiens, UniProt P33032)         < 0.1 µM
11  CC1=NN(c2ccc(C(=O)NC[C@@H]3CCN(CC(c4ccccc4)c4ccccc4)C(=O)[C@H](CCCN)N3)cc2)C(=O)C1  human MC5R (Homo sapiens, UniProt P33032)           < 1 µM
12  N=C(N)NCCC[C@@H]1N[C@H](CNC(=O)c2ccc3c(c2)OCO3)CCN(CC(c2ccccc2)c2ccccc2)C1=O  human MC5R (Homo sapiens, UniProt P33032)           < 1 µM
